Please respond with reported percentage damage caused to the plant, AMARE for every item in the list.
# Test system: Amaranthus retoflexus (AMARE)
# measurement protocol: Post-emergence efficacy, glasshouse pot test
# Assay type: in vivo
# condition set: post-emergence application at 1000 g/ha; evaluated after 13 days; five point scale

Past entries and their recorded results:
compound | data value
CC(C)C(=O)Oc1c(-c2cccc(Cl)c2OCc2ccccc2)c(=O)n(CC(F)F)c2nccnc12 [Compound 11.003] | 5 (5=80-100%)
CC(C)C(=O)Oc1c(-c2c(Cl)ccc(Cl)c2OCc2ccccc2)c(=O)n(CC(F)F)c2nccnc12 [Compound 3.008] | 5 (5=80-100%)
C#CCn1c(=O)c(-c2cccc(Cl)c2OCc2ccccc2)c(OC(=O)C(C)C)c2cccnc21 [Compound 9.001] | 3 (3=40-59%)
C#CCn1c(=O)c(-c2c(Cl)ccc(Cl)c2OCc2ccc(Cl)cc2)c(O)c2cccnc21 [Compound 2.003] | 5 (5=80-100%)
C#CCn1c(=O)c(-c2c(F)ccc(Cl)c2OCc2ccccc2)c(O)c2nccnc21 [Compound 6.003] | 5 (5=80-100%)
COc1ccnc2c1c(OC(C)=O)c(-c1c(F)ccc(Cl)c1OCc1ccccc1)c(=O)n2CC(F)F [Compound 7.002] | 5 (5=80-100%)
C#CCn1c(=O)c(-c2c(Cl)ccc(Cl)c2OCc2ccccc2)c(O)c2cccnc21 [Compound 2.001] | 5 (5=80-100%)
O=c1c(-c2c(F)ccc(Cl)c2OCc2ccccc2)c(O)c2cccnc2n1CC(F)F [Compound 8.001] | 5 (5=80-100%)
C#CCn1c(=O)c(-c2c(Cl)ccc(Cl)c2OCc2ccccc2)c(OC(=O)C(C)C)c2cccnc21 [Compound 1.001] | 5 (5=80-100%)

Proceeding to the next compound to report its percentage damage caused to the plant, AMARE.
INPUT: Given the entry C#CCn1c(=O)c(-c2cccc(Cl)c2OCc2ccccc2)c(O)c2cccnc21 [Compound 10.001] , what percentage damage caused to the plant, AMARE was observed with Amaranthus retoflexus (AMARE)?
OUTPUT: 4 (4=60-79%)

* * *

# System: Amaranthus retoflexus (AMARE)
# measurement protocol: Post-emergence efficacy, glasshouse pot test
# Assay type: in vivo
# condition set: post-emergence application at 1000 g/ha; evaluated after 13 days; five point scale
Please respond with reported percentage damage caused to the plant, AMARE for every item in the list.

compound | data value
CC(C)C(=O)Oc1c(-c2c(Cl)ccc(Cl)c2OCc2ccc(Cl)cc2)c(=O)n(CC(F)F)c2ncccc12 [Compound 3.003] | 5 (5=80-100%)
O=c1c(-c2cccc(Cl)c2OCc2ccccc2)c(O)c2nccnc2n1CC(F)F [Compound 12.003] | 5 (5=80-100%)
COc1ccnc2c1c(OC(=O)C(C)C)c(-c1c(Cl)ccc(Cl)c1OCc1ccccc1)c(=O)n2CC(F)F [Compound 3.007] | 4 (4=60-79%)
O=c1c(-c2c(F)ccc(Cl)c2OCc2ccccc2)c(O)c2nccnc2n1CC(F)F [Compound 8.003] | 5 (5=80-100%)
O=c1c(-c2c(Cl)ccc(Cl)c2OCc2ccc(C(F)(F)F)cc2)c(O)c2cccnc2n1CC(F)F [Compound 4.006] | 5 (5=80-100%)

Give percentage damage caused to the plant, AMARE for each listed item.
1. O=c1c(-c2c(Cl)ccc(Cl)c2OCc2ccc(Cl)c(Cl)c2)c(O)c2cccnc2n1CC(F)F [Compound 4.005]
2. C#CCn1c(=O)c(-c2c(F)ccc(Cl)c2OCc2ccccc2)c(OC(=O)C(C)C)c2cccnc21 [Compound 5.001]
3. CC(C)C(=O)Oc1c(-c2c(Cl)ccc(Cl)c2OCc2ccc(C(F)(F)F)cc2)c(=O)n(CC(F)F)c2ncccc12 [Compound 3.006]

OUTPUT:
5 (5=80-100%)
5 (5=80-100%)
5 (5=80-100%)

Give percentage damage caused to the plant, AMARE for each listed item.
1. C#CCn1c(=O)c(-c2c(Cl)ccc(Cl)c2OCc2ccc(C)cc2)c(O)c2cccnc21 [Compound 2.004]
2. O=c1c(-c2c(Cl)ccc(Cl)c2OCc2ccc(Cl)cc2)c(O)c2cccnc2n1CC(F)F [Compound 4.003]
3. C#CCn1c(=O)c(-c2cccc(Cl)c2OCc2ccccc2)c(O)c2nccnc21 [Compound 10.003]
4. COc1ccnc2c1c(O)c(-c1c(Cl)ccc(Cl)c1OCc1ccccc1)c(=O)n2CC(F)F [Compound 4.007]
5. C#CCn1c(=O)c(-c2cccc(Cl)c2OCc2ccccc2)c(OC(=O)C(C)C)c2nccnc21 [Compound 9.003]
6. Cc1ccc(COc2c(Cl)ccc(Cl)c2-c2c(OC(=O)C(C)C)c3cccnc3n(CC(F)F)c2=O)cc1 [Compound 3.004]
7. O=c1c(-c2cccc(Cl)c2OCc2ccccc2)c(O)c2cccnc2n1CC(F)F [Compound 12.001]

OUTPUT:
5 (5=80-100%)
5 (5=80-100%)
5 (5=80-100%)
5 (5=80-100%)
4 (4=60-79%)
4 (4=60-79%)
5 (5=80-100%)
